Experiment: GI S9 stability, dog, Example Y
Assay type: in vitro ADME
Details: pooled intestinal S9 fractions; dog intestinal S9, 1.0 mg/mL protein, 2 μM compound, pH 7.4; read-out: GIS9 DOG T½ (per Ex. Y)
Experimental: Example Y: GI S9 Stability Data Stock solutions of test compounds in dimethyl sulfoxide (DMSO) having a final concentration of 10 mM were prepared and used in all experiments. Sekisui XenoTech (Kansas City, KS) provided pooled intestinal S9 fractions. All other chemicals were purchased from Sigma-Aldrich (St. Louis, MO) or VWR (West Chester, PA). […] Metabolic stabilities in S9 fractions were determined by measuring the rates of disappearance of test compound and positive control substrate. […]
We begin with a simple list: items and their reported half-life at 2 μM.
Express it in h; write the number only.

smiles_repr	readout_kind	recorded_number
CC(C)COC(=O)OC[C@@]1(C#N)O[C@@H](c2ccc3c(N)ncnn23)[C@H](O)[C@@H]1O	half-life at 2 μM	5.18
N#C[C@]1(COC(=O)OC2CCCC2)O[C@@H](c2ccc3c(N)ncnn23)[C@H](O)[C@@H]1O	half-life at 2 μM	4.27
CCCOC(=O)OC[C@@]1(C#N)O[C@@H](c2ccc3c(N)ncnn23)[C@H](O)[C@@H]1O	half-life at 2 μM	2.6

Record "CCC(CC)OC(=O)OC[C@@]1(C#N)O[C@@H](c2ccc3c(N)ncnn23)[C@H](O)[C@@H]1O" , field half-life at 2 μM: 8.9

* * *

Form field: half-life at 2 μM (one value per entry).
test: GI S9 stability, rat, Example Y; type: in vitro ADME; conditions: pooled intestinal S9 fractions; rat intestinal S9, 1.0 mg/mL protein, 2 μM compound, pH 7.4; read-out: GIS9 Rat T½ (per Ex. Y)

// known answers, use as guide
compound	half-life at 2 μM
CC(C)COC(=O)Nc1ncnn2c([C@@H]3O[C@](C#N)(CO)[C@@H](O)[C@H]3O)ccc12 [Compound 16]	789 min
N#C[C@]1(COC(=O)OCC2CCCC2)O[C@@H](c2ccc3c(N)ncnn23)[C@H](O)[C@@H]1O [Compound 30]	3 min
CCCCCOC(=O)OC[C@@]1(C#N)O[C@@H](c2ccc3c(N)ncnn23)[C@H](O)[C@@H]1O [Compound 20]	3 min
CC(C)(C)CCOC(=O)OC[C@@]1(C#N)O[C@@H](c2ccc3c(N)ncnn23)[C@H](O)[C@@H]1O [Compound 35]	4 min
N#C[C@]1(COC(=O)OCc2ccccc2)O[C@@H](c2ccc3c(N)ncnn23)[C@H](O)[C@@H]1O [Compound 29]	3 min

Lab note: measured half-life at 2 μM of CCCCCCOC(=O)OC[C@@]1(C#N)O[C@@H](c2ccc3c(N)ncnn23)[C@H](O)[C@@H]1O [Compound 19] was 2 min

* * *

experiment: GI S9 stability, dog, Example Y; assay type: in vitro ADME; conditions: pooled intestinal S9 fractions; dog intestinal S9, 1.0 mg/mL protein, 2 μM compound, pH 7.4; read-out: GIS9 DOG T½ (per Ex. Y)
readout_kind: half-life at 2 μM (h)
Dear colleague, please return just the value in h, with no unit written.

Reference set (3 entries):
smiles_repr	half-life at 2 μM [h]
CC(C)(C)OC(=O)OC[C@@]1(C#N)O[C@@H](c2ccc3c(N)ncnn23)[C@H](O)[C@@H]1O	1.6
CC(C)COC(=O)OC[C@@]1(C#N)O[C@@H](c2ccc3c(N)ncnn23)[C@@H]2OC(=O)O[C@@H]21	0.2
CC[C@H](C)OC(=O)OC[C@@]1(C#N)O[C@@H](c2ccc3c(N)ncnn23)[C@H](O)[C@@H]1O	7.7

Now let's try a different one.
Summary for this molecule, "CC(C)(C)COC(=O)OC[C@@]1(C#N)O[C@@H](c2ccc3c(N)ncnn23)[C@H](O)[C@@H]1O" : half-life at 2 μM is 2.7
